- system under test: T1, human MSLN-R3 protein (human, UniProt Q13421 487-598)
- T1 construct: also called hMSLN-R3
- T1 sequence (Q13421 495-606, form in doubt): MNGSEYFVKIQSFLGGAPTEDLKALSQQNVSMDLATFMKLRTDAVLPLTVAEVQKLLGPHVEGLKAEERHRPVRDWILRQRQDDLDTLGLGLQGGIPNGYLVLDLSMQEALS
- test method notes: ELISA on coated antigen, antibody 10 nM
Quick reference for OD450 among some binders
The answer is to be given in OD450; state only the numeric part.

Lab note: measured OD450 of F7.44.20-H4 (scFv, not shown: small tags and cut ends, also called S009-F7.44.20 humanized antibody VH1 + VL4) scFv: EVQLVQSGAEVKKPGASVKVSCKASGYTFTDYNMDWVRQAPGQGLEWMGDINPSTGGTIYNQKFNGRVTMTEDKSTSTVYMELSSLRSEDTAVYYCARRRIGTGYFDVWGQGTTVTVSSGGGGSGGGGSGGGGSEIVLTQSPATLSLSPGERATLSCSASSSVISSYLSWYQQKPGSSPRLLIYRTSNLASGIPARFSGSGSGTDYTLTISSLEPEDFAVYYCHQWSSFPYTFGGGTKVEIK was 2.11

Notebook: F7.44.20-H7 (scFv, not shown: small tags and cut ends, also called S009-F7.44.20 humanized antibody VH1a + VL3) scFv: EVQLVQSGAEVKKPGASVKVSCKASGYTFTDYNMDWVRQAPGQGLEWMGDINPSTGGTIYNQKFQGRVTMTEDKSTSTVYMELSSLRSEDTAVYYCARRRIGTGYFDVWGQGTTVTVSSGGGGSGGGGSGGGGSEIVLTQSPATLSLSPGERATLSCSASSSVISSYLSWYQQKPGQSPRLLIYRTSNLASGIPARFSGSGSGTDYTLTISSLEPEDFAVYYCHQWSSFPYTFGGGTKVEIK , OD450 read as 2.23

Now examine the next entry.
Input F7.44.20-H3 (scFv, not shown: small tags and cut ends, also called S009-F7.44.20 humanized antibody VH1 + VL3) scFv: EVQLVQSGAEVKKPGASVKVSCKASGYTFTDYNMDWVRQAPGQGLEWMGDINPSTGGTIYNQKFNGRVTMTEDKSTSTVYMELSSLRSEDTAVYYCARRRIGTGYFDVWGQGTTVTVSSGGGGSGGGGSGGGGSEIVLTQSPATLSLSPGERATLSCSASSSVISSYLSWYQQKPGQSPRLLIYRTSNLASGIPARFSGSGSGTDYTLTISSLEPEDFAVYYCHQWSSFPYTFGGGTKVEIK . Output OD450: 2.12

Each recorded value in this set is attributed to patent US20250250357A1.
